Source: patent US20070128187A1

- assayed.target: T1, Zmax1/LRP5 ligand binding domain bait LBD1 (Leu969-Pro1376) (human, UniProt O75197 969-1376)
- T1 construct: also called pDBleuLBD1; not shown: not described
- T1 sequence: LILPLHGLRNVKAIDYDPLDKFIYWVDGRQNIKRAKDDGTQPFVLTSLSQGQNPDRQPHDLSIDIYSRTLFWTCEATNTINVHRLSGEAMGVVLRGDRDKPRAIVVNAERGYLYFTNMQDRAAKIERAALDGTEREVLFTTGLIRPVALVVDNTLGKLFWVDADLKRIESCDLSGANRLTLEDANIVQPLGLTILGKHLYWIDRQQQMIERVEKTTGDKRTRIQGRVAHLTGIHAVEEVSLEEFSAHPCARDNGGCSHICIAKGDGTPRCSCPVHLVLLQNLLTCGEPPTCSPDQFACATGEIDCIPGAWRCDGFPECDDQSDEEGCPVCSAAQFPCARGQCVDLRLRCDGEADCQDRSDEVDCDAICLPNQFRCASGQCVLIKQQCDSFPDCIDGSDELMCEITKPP
- run.description: Y2H, growth on selective media

binder	binding result
Dkk-1 clone D3 (F1/R1: Asn34-Lys182) (ligand, not shown: large carriers) NSVLNSNAIKNLPPPLGGAAGHPGSAVSAAPGILYPGGNKYQTIDNYQPYPCAEDEECGTDEYCASPTRGGDAGVQICLACRKRRKRCMRHAMCCPGNYCKNGICVSSDQNHFRGEIEETITESFGNDHSTLDGYSRRTTLSSKMYHTK	no binding
Dkk-1 clone D8 (F2/R2: Cys97-Cys245) (ligand, not shown: large carriers) CASPTRGGDAGVQICLACRKRRKRCMRHAMCCPGNYCKNGICVSSDQNHFRGEIEETITESFGNDHSTLDGYSRRTTLSSKMYHTKGQEGSVCLRSSDCASGLCCARHFWSKICKPVLKEGQVCTKHRRKGSHGLEIFQRCYCGEGLSC	binds
Dkk-1 clone D11 (F3/R2: Val139-Cys245) (ligand, not shown: large carriers) VSSDQNHFRGEIEETITESFGNDHSTLDGYSRRTTLSSKMYHTKGQEGSVCLRSSDCASGLCCARHFWSKICKPVLKEGQVCTKHRRKGSHGLEIFQRCYCGEGLSC	no binding
Dkk-1 clone D4 (F1/R2: Asn34-Cys245) (ligand, not shown: large carriers) NSVLNSNAIKNLPPPLGGAAGHPGSAVSAAPGILYPGGNKYQTIDNYQPYPCAEDEECGTDEYCASPTRGGDAGVQICLACRKRRKRCMRHAMCCPGNYCKNGICVSSDQNHFRGEIEETITESFGNDHSTLDGYSRRTTLSSKMYHTKGQEGSVCLRSSDCASGLCCARHFWSKICKPVLKEGQVCTKHRRKGSHGLEIFQRCYCGEGLSC	binds
